Tested on: P. falciparum male gametocytes
Test: P. falciparum Dual Gamete Formation Assay (PfDGFA), male readout (exflagellation)
Assay type: cell-based, Plasmodium falciparum NF54
Conditions: Plasmodium falciparum; PfDGFA at 2µM, 24h preincubation with gametocytes; average of replicates; read-out: Average inhibition male (%)
Description: […] The Pf DGFA was performed as described in Delves et al. 2016 [17]. […] Exflagellation was recorded by capturing 10 frames over 1 s under brightfield illumination using a x4 objective with a 1.5x zoom (effectively x6) attached to an automated Nikon Ti fluorescence microscope. […] The plates were then returned to the microscope and female gametes imaged at x6 using fluorescence microscopy. […]
Quantity Measured: inhibition at 2 µM (%)
Numbers only, in %.

Previously resolved entries follow.
| Molecule | Experimental Target | Unit Spec | inhibition at 2 µM |
| --- | --- | --- | --- |
| COc1ccc2nc(-c3cc(-c4ccc(NC(=O)C(C)C)cc4)cnc3N)[nH]c2c1 [TCMDC-135322] | P. falciparum male gametocytes | % | 72 |
| CC(Nc1cc(-c2ccccn2)nc(-c2ccccn2)n1)c1ccccc1 (centres unmarked) [TCMDC-125420] | P. falciparum male gametocytes | % | 78.7 |
| COc1ccc(-c2cnc(N)c(-c3ccc(C(N)=O)cc3)c2)cc1OC [TCMDC-133349] | P. falciparum male gametocytes | % | 71.3 |
| CC(C)S(=O)(=O)N1CCN(Cc2ccc3c(c2)nc(NC(=O)c2ccsc2)n3C[C@H](O)c2ccccc2)CC1 [TCMDC-138569] | P. falciparum male gametocytes | % | 67.3 |

Record inhibition at 2 µM per entry; entries follow.
1. Cc1sc2ncnc(Sc3nnc(N)s3)c2c1C [TCMDC-124542]
2. CCn1c(-c2nonc2N)nc2c(-c3ccccc3)ncc(OCCCNCCCN3CCOCC3)c21.O=C(O)C(F)(F)F [TCMDC-135858]
3. COCCn1c(Sc2ncnc3sccc23)nc2ccccc21 [TCMDC-125258]
4. COc1cc2c(cc1S(=O)(=O)c1ccc(COc3ccc(C(F)(F)F)cc3)cc1)CNCC2.Cl [TCMDC-134479]

[69.3, 85.1, 69.9, 89.2]

Record inhibition at 2 µM per entry; entries follow.
1. Cc1cccc(Nc2nc(NCCCCN)nc3cc[nH]c(=O)c23)c1.O=C(O)C(F)(F)F [TCMDC-134946]
2. Cn1c(Sc2ncnc3sccc23)nc2ccccc21 [TCMDC-124514]
3. CC(C)(CN)c1nc(-c2ccc(Br)c(O)c2)c(-c2ccncc2)[nH]1.Cl [TCMDC-140680]
4. COc1ccc(C[C@H](N)C(=O)N[C@H]2[C@@H](O)[C@H](n3cnc4c(N(C)C)ncnc43)O[C@@H]2CO)cc1 [TCMDC-123493]
5. CCc1cc2c(Sc3nnc(N)s3)ncnc2s1 [TCMDC-123993]

1. 89.5
2. 74.4
3. 80.7
4. 76.8
5. 88.1

Quick note, inhibition at 2 µM for FC(F)(F)c1ccc2[nH]c(-c3ccc(-c4ccc(CNCCN5CCNCC5)cc4)cc3)nc2c1.O=C(O)C(F)(F)F [TCMDC-132865] landed at 69.5

Where these numbers come from: paper PMC10584170
